- testedOn: human TLR8 (Homo sapiens (Human), UniProt Q9NR97)
- Sequence (Q9NR97 27-1041): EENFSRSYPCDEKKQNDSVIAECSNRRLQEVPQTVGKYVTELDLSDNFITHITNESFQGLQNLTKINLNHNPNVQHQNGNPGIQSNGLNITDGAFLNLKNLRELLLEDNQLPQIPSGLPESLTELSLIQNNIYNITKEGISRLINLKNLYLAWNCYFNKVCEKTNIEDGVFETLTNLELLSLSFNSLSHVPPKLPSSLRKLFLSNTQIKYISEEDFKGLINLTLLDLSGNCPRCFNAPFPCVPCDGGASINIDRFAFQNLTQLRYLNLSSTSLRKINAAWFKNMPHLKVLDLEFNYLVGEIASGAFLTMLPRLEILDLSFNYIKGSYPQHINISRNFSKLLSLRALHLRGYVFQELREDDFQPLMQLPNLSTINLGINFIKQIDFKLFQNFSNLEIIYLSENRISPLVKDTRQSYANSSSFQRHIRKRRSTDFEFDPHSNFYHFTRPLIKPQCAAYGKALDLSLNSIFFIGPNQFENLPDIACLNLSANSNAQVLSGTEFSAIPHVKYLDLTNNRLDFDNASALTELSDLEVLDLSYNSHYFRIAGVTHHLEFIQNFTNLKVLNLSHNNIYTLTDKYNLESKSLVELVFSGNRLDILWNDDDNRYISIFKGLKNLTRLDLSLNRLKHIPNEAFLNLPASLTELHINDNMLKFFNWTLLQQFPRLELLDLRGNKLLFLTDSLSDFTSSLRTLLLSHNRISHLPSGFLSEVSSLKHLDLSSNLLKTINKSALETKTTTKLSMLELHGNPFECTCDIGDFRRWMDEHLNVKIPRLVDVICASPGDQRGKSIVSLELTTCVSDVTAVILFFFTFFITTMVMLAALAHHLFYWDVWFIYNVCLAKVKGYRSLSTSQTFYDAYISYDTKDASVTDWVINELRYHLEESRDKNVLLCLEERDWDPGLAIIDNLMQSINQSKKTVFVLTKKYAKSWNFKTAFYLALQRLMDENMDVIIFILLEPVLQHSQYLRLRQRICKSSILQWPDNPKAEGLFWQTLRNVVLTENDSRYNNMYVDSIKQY
- assayInfo: TLR8 inhibition reporter assay (HEK-Blue SEAP);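 further: SEAP driven by IFN-β minimal promoter carrying NF-κB and AP-1 sites, compounds dosed 0.05 nM to 50 µM for 22 h, inhibition scaled between agonist-plus-DMSO and reference-inhibitor wells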
- details: read-out: TLR8 IC50; HEK-Blue cells overexpressing human TLR8, R848 15.9 μM stimulation, SEAP reporter
measuredAttribute: IC50 (nM)

>>> numericresult("Cc1cc(-c2[nH]c3ccc(C4CCC(NC5COC5)CC4)nc3c2C(C)C)cc(C)n1 (stereo not drawn) [Example 287]")
33
>>> numericresult("COc1cc(-c2[nH]c3ccc(N4CCN(CCCS(C)(=O)=O)CC4)nc3c2C(C)C)cn2ncnc12")
0.51
>>> numericresult("Cc1c(-c2[nH]c3ccc(C4CCC(N5CCCC5)CC4)nc3c2C(C)C)cn2ncnc2c1C (stereo not drawn)")
3.4
>>> numericresult("COc1cc(-c2[nH]c3ccc(N4CCN(C5COC5)CC4)nc3c2C(C)C)cn2ncnc12")
7.2
>>> numericresult("COc1cc(-c2[nH]c3ccc(C4CCC(NC(C)C)CC4)nc3c2C(C)C)cn2ncnc12 (stereo not drawn) [Example 167]")
1.7
>>> numericresult("COc1cc(-c2[nH]c3ccc(N4CCN(CC5CC5)CC4)nc3c2C(C)C)cn2ncnc12")
0.6
>>> numericresult("Cc1ncc(CN(C)C2CCC(c3ccc4[nH]c(-c5cn6ncnc6c(C)c5C)c(C(C)C)c4n3)CC2)cn1 (stereo not drawn)")
1.5
>>> numericresult("COc1cc(-c2[nH]c3cc(C)c(C4CCC(NC5COC5)CC4)nc3c2C(C)C)cn2ncnc12 (stereo not drawn) [Example 309]")
4.6

[A] COc1cc(-c2[nH]c3ccc(N4CCNCC4)nc3c2C(C)C)cn2ncnc12
[B] CC(C)c1c(-c2cn(C)c3ncncc23)[nH]c2ccc(N3CCN(C(=O)CN(C)C)CC3)nc12
[C] Cc1c(-c2[nH]c3ccc(C4CCC(N(C)C5CC5)CC4)nc3c2C(C)C)cn2ncnc2c1C (stereo not drawn) [Example 380]
[D] Cc1c(-c2[nH]c3ccc(N4CC5(CCN(CCS(C)(=O)=O)CC5)C4)nc3c2C(C)C)cn2ncnc2c1C
[E] COc1ncnc(OC)c1CN(Cc1c(OC)ncnc1OC)C1CCN(c2ccc3[nH]c(-c4cn5ncnc5c(C)c4C)c(C(C)C)c3n2)CC1
Would you mind ranking these compounds by ascending IC50? Record the ranking as a list of labels in the requested order.
A, C, B, D, E

---

- testedOn: human TLR7 (Homo sapiens (Human), UniProt Q9NYK1)
- Sequence (Q9NYK1 27-1049): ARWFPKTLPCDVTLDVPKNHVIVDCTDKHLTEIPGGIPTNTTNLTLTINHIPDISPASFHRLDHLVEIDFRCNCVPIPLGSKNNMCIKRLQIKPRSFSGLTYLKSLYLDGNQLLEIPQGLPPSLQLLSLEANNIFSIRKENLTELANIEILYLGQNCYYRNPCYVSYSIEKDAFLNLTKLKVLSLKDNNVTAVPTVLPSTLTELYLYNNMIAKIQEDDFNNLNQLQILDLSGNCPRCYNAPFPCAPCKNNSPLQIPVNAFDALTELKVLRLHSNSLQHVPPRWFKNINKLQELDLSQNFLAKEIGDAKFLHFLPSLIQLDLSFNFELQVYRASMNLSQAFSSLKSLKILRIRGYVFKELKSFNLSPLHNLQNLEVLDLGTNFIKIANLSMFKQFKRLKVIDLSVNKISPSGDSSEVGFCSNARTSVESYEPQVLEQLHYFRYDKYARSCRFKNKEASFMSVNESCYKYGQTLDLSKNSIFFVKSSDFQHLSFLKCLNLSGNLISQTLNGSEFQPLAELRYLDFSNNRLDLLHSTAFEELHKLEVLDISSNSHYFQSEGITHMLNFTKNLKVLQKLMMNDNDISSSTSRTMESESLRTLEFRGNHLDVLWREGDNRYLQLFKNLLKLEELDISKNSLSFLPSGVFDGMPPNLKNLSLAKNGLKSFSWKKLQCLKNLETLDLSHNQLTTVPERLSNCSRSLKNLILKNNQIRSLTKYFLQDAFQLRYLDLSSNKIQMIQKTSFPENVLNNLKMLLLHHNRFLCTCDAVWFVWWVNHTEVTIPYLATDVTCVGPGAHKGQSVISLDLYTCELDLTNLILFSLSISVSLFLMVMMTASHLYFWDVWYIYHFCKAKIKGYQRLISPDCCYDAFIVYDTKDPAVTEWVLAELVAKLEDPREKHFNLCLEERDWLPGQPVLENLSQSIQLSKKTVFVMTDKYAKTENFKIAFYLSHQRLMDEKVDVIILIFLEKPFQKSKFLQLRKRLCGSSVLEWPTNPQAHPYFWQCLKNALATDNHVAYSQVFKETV
- assayInfo: TLR7 inhibition reporter assay (HEK-Blue SEAP)
- Type: cell-based
- details: HEK-Blue cells overexpressing human TLR7, gardiquimod 7.5 μM stimulation, SEAP reporter
measuredAttribute: IC50 (nM)

[A] Cc1cc(-c2[nH]c3ccc(N4CCNCC4)nc3c2C(C)C)cn2ncnc12
[B] COc1cc(-c2[nH]c3ccc(C4CCC(N(C)CCO)CC4)nc3c2C(C)C)cn2ncnc12 (stereo not shown) [Example 191]
[C] Cc1cc(-c2[nH]c3ccc(C4CCC(N5CC6(COC6)C5)CC4)nc3c2C(C)C)cc(C)n1 (stereo not shown) [Example 286]
[D] CC(C)c1c(-c2cn(CCS(C)(=O)=O)c3ncccc23)[nH]c2ccc(C3CCC(NCC(=O)N(C)C)CC3)nc12 (stereo not shown) [Example 257]
Put the items in sequence by IC50, from largest down. Record the ranking as a list of labels in the requested order.
A, D, C, B
